- Tested on: MT4
- assay.remarks: The compound was evaluated for inhibition of cytopathic effect of HIV-1 IIIB in MT-4 cells
- Type: functional, cell-based, Homo sapiens
- measurement.conditions: mt4
measured.metric: pEC50
pEC50 (log units): -log10 of the concentration in mol/L.

Solved cases below.
CC(C)CCCC(C)[C@H]1CC[C@H]2[C@@H]3CCC4C[C@@H](CCC=C(c5cc(Cl)c(OCc6cccc(C(=O)[O-])c6)c(C(=O)[O-])c5)c5cc(Cl)c(OCc6cccc(C(=O)[O-])c6)c(C(=O)[O-])c5)CC[C@]4(C)[C@H]3CC[C@]12C.[Na+].[Na+].[Na+].[Na+] (stereo not given in full) :: 5.62
CC(C)CCCC(C)[C@H]1CC[C@H]2[C@@H]3CCC4C[C@@H](CCC=C(c5cc(Cl)c(OCc6ccc(C(=O)[O-])cc6)c(C(=O)[O-])c5)c5cc(Cl)c(OCc6ccc(C(=O)[O-])cc6)c(C(=O)[O-])c5)CC[C@]4(C)[C@H]3CC[C@]12C.[Na+].[Na+].[Na+].[Na+] (stereo not given in full) :: 5.85
CC(C)CCCC(C)[C@H]1CC[C@H]2[C@@H]3CCC4C[C@@H](CCC=C(c5cc(Cl)c(OCc6ccccc6C(=O)[O-])c(C(=O)[O-])c5)c5cc(Cl)c(OCc6ccccc6C(=O)[O-])c(C(=O)[O-])c5)CC[C@]4(C)[C@H]3CC[C@]12C.[Na+].[Na+].[Na+].[Na+] (stereo not given in full) :: 4.66

Asked: Which pEC50 is reported for this compound? CC(C)CCCC(C)[C@H]1CC[C@H]2[C@@H]3CCC4C[C@@H](CCC=C(c5cc(Cl)c(OCc6cccc([N+](=O)[O-])c6)c(C(=O)[O-])c5)c5cc(Cl)c(OCc6cccc([N+](=O)[O-])c6)c(C(=O)[O-])c5)CC[C@]4(C)[C@H]3CC[C@]12C.[Na+].[Na+] (stereo not given in full)
Given back: 4.32

* * *

- System: CEM-SS
- assay.remarks: The compound was evaluated for inhibition of cytopathic effect of HIV-1 RF in CEM-SS cells
- Assay type: functional, cell-based, Homo sapiens
- measurement.conditions: Homo sapiens, CEM-SS
measured.metric: EC50 (µM)
Form entry: value (µM) — number only.

Would you please look over these solved cases?
CC(C)CCCC(C)[C@H]1CC[C@H]2[C@@H]3CCC4C[C@@H](CCC=C(c5cc(Cl)c(OCc6cccc(C(=O)O)c6)c(C(=O)O)c5)c5cc(Cl)c(OCc6cccc(C(=O)O)c6)c(C(=O)O)c5)CC[C@]4(C)[C@H]3CC[C@]12C (stereo not given in full) :: 5.7
CC(C)CCCC(C)[C@H]1CC[C@H]2[C@@H]3CCC4C[C@@H](CCC=C(c5cc(Cl)c(OCc6ccc(C(=O)O)cc6)c(C(=O)O)c5)c5cc(Cl)c(OCc6ccc(C(=O)O)cc6)c(C(=O)O)c5)CC[C@]4(C)[C@H]3CC[C@]12C (stereo not given in full) :: 0.5
CC(C)CCCC(C)[C@H]1CC[C@H]2[C@@H]3CCC4C[C@@H](CCC=C(c5cc(Cl)c(OCc6cccc([N+](=O)[O-])c6)c(C(=O)[O-])c5)c5cc(Cl)c(OCc6cccc([N+](=O)[O-])c6)c(C(=O)[O-])c5)CC[C@]4(C)[C@H]3CC[C@]12C.[Na+].[Na+] (stereo not given in full) :: 21.5

Asked: Fill in: EC50 of CC(C)CCCC(C)[C@H]1CC[C@H]2[C@@H]3CCC4C[C@@H](CCC=C(c5cc(Cl)c(OCc6ccccc6[N+](=O)[O-])c(C(=O)[O-])c5)c5cc(Cl)c(OCc6ccccc6[N+](=O)[O-])c(C(=O)[O-])c5)CC[C@]4(C)[C@H]3CC[C@]12C.[Na+].[Na+] (stereo not given in full) is ___
Given back: 12.2

Asked: Field request: EC50 | item: CC(C)CCCC(C)[C@H]1CC[C@H]2[C@@H]3CCC4C[C@@H](CCC=C(c5cc(Cl)c(OCc6ccc([N+](=O)[O-])cc6)c(C(=O)[O-])c5)c5cc(Cl)c(OCc6ccc([N+](=O)[O-])cc6)c(C(=O)[O-])c5)CC[C@]4(C)[C@H]3CC[C@]12C.[Na+].[Na+] (stereo not given in full)
Given back: 78.2

Origin of the recorded values: ChEMBL document CHEMBL1132142
